# System: HOS
# ASSAY SUMMARY: Cytotoxicity test (MTT), HOS
# Type: cell-based
# RUN PARAMETERS: 10^−6 M, cultured for 72 hrs, in comparison with the control group

# COMPOUND, Cell survival rate, %
data = [
    ("Cc1nc(-c2ccc(OCCCCCOc3ccc(C(=N)NO)cc3)cc2)c(CN2CCCCC2)s1 [Example 11]", 101.9),
    ("CNc1sc(C)nc1-c1ccc(OCCCCCOc2ccc(C(=N)NO)cc2)cc1 [Example 37]", 105.3),
    ("CN1CCN(Cc2sc(N(C)CCN3CCOCC3)nc2-c2ccc(OCCCCCOc3ccc(C(=N)NO)cc3)cc2)CC1 [Example 31]", 101),
    ("Cc1nc(-c2ccc(OCCCCCOc3ccc(C(=N)NO)cc3)cc2)c(CN(C)C)s1 [Example 12]", 107.5),
    ("CN(CCN1CCOCC1)c1nc(-c2ccc(OCCCCCOc3ccc(C(=N)NO)cc3)cc2)c(CN2CCOCC2)s1 [Example 28]", 114),
    ("Cc1nc(-c2ccc(OCCCCCOc3ccc(C(=N)NO)cc3)cc2)c(N2CCN(C)CC2)s1 [Example 2]", 107.0),
    ("Cc1nc(-c2ccc(OCCCCCOc3ccc(C(=N)NO)cc3)cc2)c(N(C)C)s1 [Example 41]", 107),
    ("Cc1nc(-c2ccc(OCCCCCOc3ccc(C(=N)NO)cc3)cc2)c(CNCCCn2ccnc2)s1 [Example 18]", 106),
    ("N=C(NO)c1ccc(OCCCCCOc2ccc(-c3nc(N4CCCCC4)sc3N3CCOCC3)cc2)cc1 [Example 52]", 97),
]

* * *

Reported inhibition at 1 µM values for a set of compounds
# Tested on: osteoclast differentiation
# ASSAY SUMMARY: Inhibitory effects on osteoclast differentiation (bone marrow cell/osteoblast co-culture, TRAP staining)
# Format: cell-based, mice
# RUN PARAMETERS: Mus musculus, Osteoclast, 168 h, read-out: Inhibition of osteoclast differentiation (%)
OBSERVATION TYPE: inhibition at 1 µM (%)

# CHEMICAL STRING, TEST VALUE
data = [
    ("Cc1nc(-c2ccc(OCCCCCOc3ccc(C(=N)NO)cc3)cc2)c(CN2CCSCC2)s1", 92.9),
    ("Cc1nc(-c2ccc(OCCCCCOc3ccc(C(=N)NO)cc3)cc2)c(CNC(C)(C)C)s1", 100),
    ("Cc1nc(-c2ccc(OCCCCCOc3ccc(C(=N)NO)cc3)cc2)c(CN2CCN(C)CC2)s1", 96.4),
    ("N=C(NO)c1ccc(OCCCCCOc2ccc(-c3nc(N4CCOCC4)sc3N3CCSCC3)cc2)cc1", 92),
    ("CCCNCc1sc(C)nc1-c1ccc(OCCCCCOc2ccc(C(=N)NO)cc2)cc1", 100),
    ("N=C(NO)c1ccc(OCCCCCOc2ccc(-c3nc(N4CCOCC4)sc3N3CCCC3)cc2)cc1", 58),
    ("CN(Cc1ccncc1)c1nc(-c2ccc(OCCCCCOc3ccc(C(=N)NO)cc3)cc2)c(CN2CCOCC2)s1", 100),
    ("Cc1nc(-c2ccc(OCCCCCOc3ccc(C(=N)NO)cc3)cc2)c(CN(C)C)s1", 64.9),
]

* * *

Reported Cell survival rate values for a set of compounds
# System: HOS
# ASSAY SUMMARY: Cytotoxicity test (MTT), HOS
# Format: cell-based
# RUN PARAMETERS: 10^−6 M, cultured for 72 hrs, in comparison with the control group

# COMPOUND, UNIT INFO, Cell survival rate
rows = [
    ("Cc1nc(-c2ccc(OCCCCCOc3ccc(C(=N)NO)cc3)cc2)c(CN2CCOCC2)s1 [Example 8]", "%", 102.3),
    ("CN(CCO)c1nc(-c2ccc(OCCCCCOc3ccc(C(=N)NO)cc3)cc2)c(CN2CCOCC2)s1 [Example 25]", "%", 86),
    ("Cc1nc(-c2ccc(OCCCCCOc3ccc(C(=N)NO)cc3)cc2)c(CN2CCN(C)CC2)s1 [Example 9]", "%", 95),
    ("COCCNCc1sc(N(C)CCN2CCOCC2)nc1-c1ccc(OCCCCCOc2ccc(C(=N)NO)cc2)cc1 [Example 33]", "%", 110),
    ("CC(C)NCc1sc(N(C)CCN2CCOCC2)nc1-c1ccc(OCCCCCOc2ccc(C(=N)NO)cc2)cc1 [Example 32]", "%", 106),
    ("CCN(C)c1nc(-c2ccc(OCCCCCOc3ccc(C(=N)NO)cc3)cc2)c(CN2CCOCC2)s1 [Example 26]", "%", 102),
    ("COCCN(CCOC)Cc1sc(N(C)CCN2CCOCC2)nc1-c1ccc(OCCCCCOc2ccc(C(=N)NO)cc2)cc1 [Example 30]", "%", 107),
    ("CN(Cc1ccccc1)c1nc(-c2ccc(OCCCCCOc3ccc(C(=N)NO)cc3)cc2)c(CN2CCOCC2)s1 [Example 27]", "%", 104),
    ("N=C(NO)c1ccc(OCCCCCOc2ccc(-c3nc(N)sc3N3CCOCC3)cc2)cc1 [Example 3]", "%", 89.0),
    ("CN(C)c1sc(-c2ccccc2)nc1-c1ccc(OCCCCCOc2ccc(C(=N)NO)cc2)cc1 [Example 42]", "%", 100),
    ("N=C(NO)c1ccc(OCCCCCOc2ccc(-c3nc(-c4cccnc4)sc3N)cc2)cc1 [Example 47]", "%", 112),
    ("Cc1nc(-c2ccc(OCCCCCOc3ccc(C(=N)NO)cc3)cc2)c(CNC(C)(C)C)s1 [Example 15]", "%", 98),
    ("CN(CCN1CCOCC1)c1nc(-c2ccc(OCCCCCOc3ccc(C(=N)NO)cc3)cc2)c(CN2CCSCC2)s1 [Example 29]", "%", 109),
    ("Cc1nc(-c2ccc(OCCCCCOc3ccc(C(=N)NO)cc3)cc2)c(N)s1 [Example 46]", "%", 106),
    ("Cc1nc(-c2ccc(OCCCCCOc3ccc(C(=N)NO)cc3)cc2)c(NC(=O)c2cccnc2)s1 [Example 39]", "%", 92.1),
    ("N=C(NO)c1ccc(OCCCCCOc2ccc(-c3nc(N4CCOCC4)sc3CN3CCOCC3)cc2)cc1 [Example 51]", "%", 91),
    ("CCCNCc1sc(C)nc1-c1ccc(OCCCCCOc2ccc(C(=N)NO)cc2)cc1 [Example 16]", "%", 100),
    ("CN(Cc1ccncc1)c1nc(-c2ccc(OCCCCCOc3ccc(C(=N)NO)cc3)cc2)c(CN2CCOCC2)s1 [Example 24]", "%", 112),
    ("N=C(NO)c1ccc(OCCCCCOc2ccc(-c3nc(N4CCOCC4)sc3N3CCCC3)cc2)cc1 [Example 7]", "%", 92),
    ("N=C(NO)c1ccc(OCCCCCOc2ccc(-c3nc(N4CCOCC4)sc3N3CCOCC3)cc2)cc1 [Example 5]", "%", 100),
    ("CN1CCN(c2sc(N3CCOCC3)nc2-c2ccc(OCCCCCOc3ccc(C(=N)NO)cc3)cc2)CC1 [Example 4]", "%", 104),
    ("Cc1nc(-c2ccc(OCCCCCOc3ccc(C(=N)NO)cc3)cc2)c(CNCC(C)C)s1 [Example 14]", "%", 111),
    ("Cc1nc(-c2ccc(OCCCCCOc3ccc(C(=N)NO)cc3)cc2)c(CN2CCCC2)s1 [Example 19]", "%", 90),
    ("N=C(NO)c1ccc(OCCCCCOc2ccc(-c3nc(-c4ccccc4)sc3N)cc2)cc1 [Example 45]", "%", 104),
    ("Cc1nc(-c2ccc(OCCCCCOc3ccc(C(=N)NO)cc3)cc2)c(N2CCOCC2)s1 [Example 1]", "%", 105.6),
    ("CNc1nc(-c2ccc(OCCCCCOc3ccc(C(=N)NO)cc3)cc2)c(N2CCOCC2)s1 [Example 23]", "%", 104.0),
    ("N=C(NO)c1ccc(OCCCCCOc2ccc(-c3nc(N4CCOCC4)sc3N3CCSCC3)cc2)cc1 [Example 6]", "%", 92),
    ("CCCCNCc1sc(C)nc1-c1ccc(OCCCCCOc2ccc(C(=N)NO)cc2)cc1 [Example 13]", "%", 106),
]
